# experimental-system: CB2 receptor (Homo sapiens, UniProt P34972)
# Construct: expressed in transfected cells; host or cells: CHO cells, G418-selected transfected line
# Sequence (P34972 whole entry): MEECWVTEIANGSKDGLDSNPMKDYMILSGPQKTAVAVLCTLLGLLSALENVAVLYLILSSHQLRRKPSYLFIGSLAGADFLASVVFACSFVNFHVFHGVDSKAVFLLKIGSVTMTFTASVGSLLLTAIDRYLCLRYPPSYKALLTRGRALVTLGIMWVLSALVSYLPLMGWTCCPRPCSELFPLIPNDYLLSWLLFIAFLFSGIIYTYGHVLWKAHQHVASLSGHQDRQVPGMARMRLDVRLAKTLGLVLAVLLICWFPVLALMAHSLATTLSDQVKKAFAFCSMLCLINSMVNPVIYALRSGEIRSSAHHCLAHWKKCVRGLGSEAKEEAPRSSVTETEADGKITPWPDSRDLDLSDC
# assay-protocol: CB2 binding procedure: displacement of [3H]CP-55,940 from membranes of transfected CHO cells
# settings: Ki (nM) CB2, means ± SEM; [3H]CP-55,940, transfected CHO cell membranes
observed-property: Ki (nM)
Express the result in nM but write the number alone.

Query: Give reported Ki for CCCCCCC(C)(C)c1cc(O)c(C2CCC(c3ccccc3)CC2)c(O)c1 (stereo not shown) (CB2 receptor (Homo sapiens, UniProt P34972))
Result: 9

----------
Listing of entries alongside the reported Ki.
# experimental-system: CB1 receptor (Rattus norvegicus, UniProt P20272)
# Sequence (P20272 whole entry): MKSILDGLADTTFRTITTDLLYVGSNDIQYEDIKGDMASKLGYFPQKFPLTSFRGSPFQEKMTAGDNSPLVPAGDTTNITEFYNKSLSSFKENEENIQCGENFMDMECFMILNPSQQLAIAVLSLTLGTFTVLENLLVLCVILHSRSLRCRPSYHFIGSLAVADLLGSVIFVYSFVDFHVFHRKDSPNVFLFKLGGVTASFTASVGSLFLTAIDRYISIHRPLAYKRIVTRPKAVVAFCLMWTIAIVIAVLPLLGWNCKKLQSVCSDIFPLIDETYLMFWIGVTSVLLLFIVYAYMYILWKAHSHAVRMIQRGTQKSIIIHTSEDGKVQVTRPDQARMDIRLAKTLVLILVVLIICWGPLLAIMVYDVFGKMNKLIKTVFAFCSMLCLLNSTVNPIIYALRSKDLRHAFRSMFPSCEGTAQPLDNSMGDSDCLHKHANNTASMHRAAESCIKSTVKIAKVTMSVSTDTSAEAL
# assay-protocol: CB1 binding procedure: displacement of [3H]CP 55,940 from rat whole-brain P2 membranes
# Design: whole brain was homogenized and centrifuged; from tissue; host or cells: rat whole brain, P2 membrane fraction
# settings: means ± SEM; [3H]CP 55,940, rat brain membranes; read-out: Ki (nM) CB1

Example entries and their recorded answers appear below.
{"molecule": "CCCCCCC(C)(C)c1cc(O)c(C2C3CC4CC(C3)CC2C4)c(O)c1 (stereo not drawn) [O-1660]", "observed-property": "Ki", "experimental-value": "7 nM"}
{"molecule": "CCCCCCC(C)(C)c1cc(OC)c(C2CCCC(C)C2)c(OC)c1 (stereo not drawn) [O-1999]", "observed-property": "Ki", "experimental-value": "> 10000 nM"}
{"molecule": "CCCCCCC(C)(C)c1cc(OC)c(C2(O)CCC(O)CC2)c(OC)c1 (single isomer, unassigned) [O-2117B]", "observed-property": "Ki", "experimental-value": "> 10000 nM"}
{"molecule": "CCCCCCC(C)(C)c1cc(OC)c(C2(O)CCCCCC2)c(OC)c1 [O-2091]", "observed-property": "Ki", "experimental-value": "3200 nM"}
{"molecule": "CCCCCCC(C)(C)c1cc(OC)c(C2(O)CCC(=O)CC2)c(OC)c1 [O-2115]", "observed-property": "Ki", "experimental-value": "4570 nM"}
{"molecule": "CCCCCCC(C)(C)c1cc(O)c(C2=CCCCC2)c(O)c1 [O-1423]", "observed-property": "Ki", "experimental-value": "97 nM"}
{"molecule": "CCCCCCC(C)(C)c1cc(OC)c(C2(O)CCCCC2)c(OC)c1 [O-2072]", "observed-property": "Ki", "experimental-value": "5820 nM"}
{"molecule": "CCCCCCC(C)(C)c1cc(O)c(C2CCCCC2)c(O)c1 [O-1422]", "observed-property": "Ki", "experimental-value": "11 nM"}
{"molecule": "CCCCCCC(C)(C)c1cc(O)c(C2CCN(C)CC2)c(O)c1 [O-1662]", "observed-property": "Ki", "experimental-value": "> 10000 nM"}
{"molecule": "CCCCCCC(C)(C)c1cc(O)c(C2CCCCC2C)c(O)c1 (stereo not drawn) [O-1658]", "observed-property": "Ki", "experimental-value": "16 nM"}

Query: Please look at this molecule and report its Ki: CCCCCCC(C)(C)c1cc(OC)c(C2(O)CCCC(C)C2)c(OC)c1 (single isomer, unassigned; isomer 1) [O-1966A]
Result: 5060 nM

Query: Check the records and state Ki for CCCCCCC(C)(C)c1cc(O)c(C2CCSC2)c(O)c1 (stereo not drawn) [O-1661]
Result: 138 nM
